Entry source: PubChem BioAssay (NCI)

Would you kindly list growth for each of these molecules?
system: HOP-62 NSCLC; assay: NCI-60 one-dose screen, 48 h (100 = growth as untreated, 0 = no growth, -100 = all killed); conditions: 10 µM unless noted
This is part of a sample that, as a whole, favours compounds with a hit. Of some 83,000 tested, about 20% had one in any assay.
Write the number in % without appending the unit.

**Query** Tell me reported growth for `COc1cccc(C(=O)NCCCNc2cc(-c3cn(-c4ccccc4)nc3-c3cccc(OC)c3)ccn2)c1` , tested with HOP-62 NSCLC.
**Result** 66

**Query** Tell me reported growth for `C[C@@]1(CCC#N)[C@H]2CC[C@@H]3[C@H]4[C@H](C(=O)/C=C/c5cccnc5)CC[C@]4(C#N)CC[C@@]3(C)[C@]2(C)CC[C@H]1C(=O)/C=C/c1cccnc1` , tested with HOP-62 NSCLC.
**Result** 73.2

**Query** Tell me reported growth for COc1cc(C2CC(c3ccc(Nc4ccnc5cc(Cl)ccc45)cc3)=NN2C=O)cc(OC)c1OC (stereo not drawn) , tested with HOP-62 NSCLC.
**Result** 84.4

**Query** Tell me reported growth for `COc1cc(-c2nc(N3CCN(C)CC3)c3ccccc3n2)cc(OC)c1OC` , tested with HOP-62 NSCLC.
**Result** 47.3

**Query** Tell me reported growth for `O=C(Nc1cccc2c(O)c(N=Nc3ccc(S(=O)(=O)Nc4nccs4)cc3)cc(N=Nc3ccc(S(=O)(=O)Nc4nccs4)cc3)c12)C(Cl)Cl` , tested with HOP-62 NSCLC.
**Result** 96.8

**Query** Tell me reported growth for `Cc1cc(C)c2c(-c3nnc(N)s3)cc(=O)oc2c1` , tested with HOP-62 NSCLC.
**Result** 111

**Query** Tell me reported growth for `COc1c(CCC[P+](c2ccccc2)(c2ccccc2)c2ccccc2)cc2c(c1OC)OCO2` , tested with HOP-62 NSCLC.
**Result** 15.1

**Query** Tell me reported growth for `COc1cccc(-c2nn(-c3ccccc3)cc2-c2ccnc(NCCNC(=O)c3ccccc3)c2)c1` , tested with HOP-62 NSCLC.
**Result** 60.7
